The following molecules each carry a recorded pKi for UniProt P31652.
Sequence (P31652 whole entry): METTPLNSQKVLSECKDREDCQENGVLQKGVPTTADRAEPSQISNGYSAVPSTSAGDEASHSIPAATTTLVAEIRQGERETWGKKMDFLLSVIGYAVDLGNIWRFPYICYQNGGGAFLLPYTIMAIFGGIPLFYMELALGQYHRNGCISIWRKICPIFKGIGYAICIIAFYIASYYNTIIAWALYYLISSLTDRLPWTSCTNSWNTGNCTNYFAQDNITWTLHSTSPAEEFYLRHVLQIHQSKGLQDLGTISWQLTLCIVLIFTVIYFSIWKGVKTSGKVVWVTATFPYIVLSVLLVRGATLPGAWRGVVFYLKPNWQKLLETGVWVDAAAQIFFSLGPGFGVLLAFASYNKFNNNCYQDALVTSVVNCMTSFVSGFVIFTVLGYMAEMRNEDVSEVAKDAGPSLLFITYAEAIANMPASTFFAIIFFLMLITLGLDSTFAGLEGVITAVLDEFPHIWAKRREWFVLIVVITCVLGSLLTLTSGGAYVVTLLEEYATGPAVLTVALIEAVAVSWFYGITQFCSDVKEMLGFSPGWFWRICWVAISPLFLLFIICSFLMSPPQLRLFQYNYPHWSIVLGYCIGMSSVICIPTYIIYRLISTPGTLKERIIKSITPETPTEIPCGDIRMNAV
pKi: −log10 of the molar value.
assayMetric: pKi

[[record]]
molecule = "CN1C2CCC1CC(=CCOC(c1ccc(F)cc1)c1ccc(F)cc1)C2"
reportedmeasurement = 5.44

[[record]]
molecule = "CN1C2CCC1CC(CCNC(c1ccccc1)c1ccccc1)C2 (stereo not drawn)"
reportedmeasurement = 4.37

[[record]]
molecule = "CN1C2CCC1CC(CCOC(c1ccc(F)cc1)c1ccc(F)cc1)C2 (stereo not drawn)"
reportedmeasurement = 5.39

[[record]]
molecule = "CN1C2CCC1CC(=CC(=O)NC(c1ccc(F)cc1)c1ccc(F)cc1)C2"
reportedmeasurement = 4.72

[[record]]
molecule = "CN1[C@@H]2CC[C@H]1C[C@@H](CC(=O)NC(c1ccccc1)c1ccccc1)C2"
reportedmeasurement = 3.92

[[record]]
molecule = "CN1C2CCC1CC(CC(=O)NC(c1ccc(F)cc1)c1ccc(F)cc1)C2 (stereo not drawn)"
reportedmeasurement = 4.16

[[record]]
molecule = "CN1[C@@H]2CC[C@H]1C[C@@H](CCNC(c1ccc(F)cc1)c1ccc(F)cc1)C2"
reportedmeasurement = 4.52

[[record]]
molecule = "c1ccc(CCCN2[C@@H]3CC[C@H]2C[C@@H](CCOC(c2ccccc2)c2ccccc2)C3)cc1"
reportedmeasurement = 6.77

